The reported measurements were obtained from paper PMC4242493.

subjectOfTest: MaxL homodimer (Homo sapiens, UniProt P61244 1-160)
Sequence (P61244 whole entry): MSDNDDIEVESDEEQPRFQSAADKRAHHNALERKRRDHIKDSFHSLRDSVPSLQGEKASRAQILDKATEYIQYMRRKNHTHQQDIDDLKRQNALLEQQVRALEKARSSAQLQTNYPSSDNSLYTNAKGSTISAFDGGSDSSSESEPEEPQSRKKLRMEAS
experimentNotes: universal protein-binding microarray (PBM); PBS-based mixture, 10 nM His-tagged protein dimer, 2% milk, 200 ng/uL BSA, 50 ng/uL salmon testes DNA, 0.02% TX-100; detection with Alexa 488 anti-His antibody;; high values mean tight binding;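 also: fluorescence intensity normalized to that of the highest-ranked 8-mer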
conditionDetails: protein: recombinant; tags: C-terminal His-tag (pET21a); chain copies: 2; dsDNA, one strand shown
In all, about 33,000 sequences were measured (“normalized occupancy”: median about 0.075, highest 2% from about 0.095 on). What follows is part of a selection rich in the highest values, with near analogues and random picks from the rest.
// thresholds for binding signal classes: group A: < 0.08 normalized occupancy; group B: ≥ 0.08 normalized occupancy and < 0.09 normalized occupancy; group C: ≥ 0.09 normalized occupancy

Category lookup for the sequence CCCCCACG group C

Where would ACGTAGGC land among the classes by reported binding signal? group A

Exam item: assign AGTAAAAA to the correct category. group A

Given ATCACGCC , name the class its binding signal places it in. group B

Input CACATGTA ; output its category group C

Input CCGTGAGA ; output its category group A

Which binding signal category applies to CACCCACG here? group C

Band for the recorded binding signal of ACGTGAGG ? group C

# bin label for CGAAAATC group A

Form: Item = ATCATGCC ; Class = ? group C

Dear colleague, I would appreciate it if you could identify the bin for CATCCACA and reply at your convenience. group B

Which class is correct for the following sequence? GCGTGGGA group C

Textbook exercise: identify the category of the sequence given here, GCATTCTA , according to its measured value. group B

Which binding signal category applies to TAGGAAAA here? group A

Given GAACATAC , name the class its binding signal places it in. group B

Please indicate the class for CCCCCACA based on its binding signal. group B

Kindly identify the class of AAGTGAGG . group A

Class (by measured binding signal) for CAACTATG group B

For this sequence, which bin applies? ACGTGGGA group C

Where would ATCACGCG land among the classes by reported binding signal? group C

Could you tell me which band CCAGTTGC belongs to? group A

Band for the recorded binding signal of ACGTGAGC ? group C

Form field 'band' for CCCACGCG group C

Which category fits this record: ATAGCGAA group A

Which band does ACGTGGGG fall in? group C

----------
Consider the following sequences; for each one, report its binding signal.
subjectOfTest: MaxL homodimer (Homo sapiens, UniProt P61244 1-160)
experimentNotes: universal protein-binding microarray (PBM); PBS-based mixture, 10 nM His-tagged protein dimer, 2% milk, 200 ng/uL BSA, 50 ng/uL salmon testes DNA, 0.02% TX-100; detection with Alexa 488 anti-His antibody;; high values mean tight binding;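 also: fluorescence intensity normalized to that of the highest-ranked 8-mer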
conditionDetails: protein: recombinant; tags: C-terminal His-tag (pET21a); chain copies: 2; dsDNA, one strand shown
Over roughly 33,000 sequences, “normalized occupancy” has its median near 0.075; the highest 2% begin near 0.095. This excerpt belongs to a sample that is enriched for the highest values.
API: value field is a number in normalized occupancy; no unit string.

Give the reported binding signal for this sequence. CTACGCGC 0.0727

Provide measured binding signal value, entry: CAACGAGA 0.0767

Return binding signal for the following sequence: CGACGCGA 0.0735

Output binding signal of AGGTGTTG 0.0828

Answer with the recorded binding signal of ACACGGCC only. 0.0719

Tell us which binding signal value is on record for AGTCAGCG 0.0777

Supply reported binding signal belonging to this sequence: CCACGAGA 0.1

Specify measured binding signal for TCACGCAA . 0.0764

Specify binding signal for ACAGCACG and stop. 0.0906

Quick one: give measured binding signal for CCACGACG 0.0811

Answer with the recorded binding signal of TCACGCCA only. 0.0851

Tell me its binding signal given AAACGACC as the entry. 0.0727

----------
Can you tell me binding signal for the items I'm about to list?
subjectOfTest: MaxL homodimer (Homo sapiens, UniProt P61244 1-160)
experimentNotes: universal protein-binding microarray (PBM); PBS-based mixture, 10 nM His-tagged protein dimer, 2% milk, 200 ng/uL BSA, 50 ng/uL salmon testes DNA, 0.02% TX-100; detection with Alexa 488 anti-His antibody;; high values mean tight binding;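 also: fluorescence intensity normalized to that of the highest-ranked 8-mer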
conditionDetails: protein: recombinant; tags: C-terminal His-tag (pET21a); chain copies: 2; dsDNA, one strand shown
In all, about 33,000 sequences were measured (“normalized occupancy”: median about 0.075, highest 2% from about 0.095 on). The list comes from a sample in which the highest values are over-represented; it also holds close analogues and randomly drawn sequences.

Using known records, supply binding signal for AATGCAAC 0.0776 normalized occupancy

Fill in reported binding signal for this entry: AATGCGTA 0.0846 normalized occupancy

Name the recorded binding signal of the item AATGTGAG in your answer. 0.0853 normalized occupancy

Please supply the value of reported binding signal for the item CGCGCGGA 0.0836 normalized occupancy

Give binding signal for the following sequence: AAGCATTG 0.0783 normalized occupancy

// Input: CATGCGTC . Output its binding signal only. 0.113 normalized occupancy

Consider the sequence GAGCACGC . State its measured binding signal. 0.094 normalized occupancy

Please give measured binding signal of the following entry: CAGCATGC 0.126 normalized occupancy

Please indicate binding signal recorded for CATGTGAA 0.127 normalized occupancy

Give binding signal for AATGTGAC 0.0908 normalized occupancy

Provide one value: measured binding signal of AACGCGGA 0.0818 normalized occupancy

Please give measured binding signal of the following entry: CATGCGTA 0.122 normalized occupancy

Tell me measured binding signal for GACGCGGC please. 0.0758 normalized occupancy

Assign binding signal to the following record: GATGTGAA 0.0819 normalized occupancy

----------
subjectOfTest: MaxL homodimer (Homo sapiens, UniProt P61244 1-160)
experimentNotes: universal protein-binding microarray (PBM); PBS-based mixture, 10 nM His-tagged protein dimer, 2% milk, 200 ng/uL BSA, 50 ng/uL salmon testes DNA, 0.02% TX-100; detection with Alexa 488 anti-His antibody;; high values mean tight binding;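 also: fluorescence intensity normalized to that of the highest-ranked 8-mer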
conditionDetails: protein: recombinant; tags: C-terminal His-tag (pET21a); chain copies: 2; dsDNA, one strand shown
The full ranking holds about 33,000 sequences; the median of “normalized occupancy” is about 0.075, and the highest 2% start at about 0.095. The entries come from a sample that favours the highest values as a whole.
Record form. Attribute: binding signal. Fill in for each entry.
Give just the numeric value; normalized occupancy need not be written.

Name the recorded binding signal of the item CCGTGTGA in your answer. 0.0836

Supply binding signal value. Item: CCGTGCGC 0.0813

Answer with the recorded binding signal for the sequence listed here: ATGCGTTG 0.0816

Identify binding signal associated with the sequence ACGTGTGC 0.109

Answer with the recorded binding signal of ACGTGCGA only. 0.093

----------
subjectOfTest: MaxL homodimer (Homo sapiens, UniProt P61244 1-160)
experimentNotes: universal protein-binding microarray (PBM); PBS-based mixture, 10 nM His-tagged protein dimer, 2% milk, 200 ng/uL BSA, 50 ng/uL salmon testes DNA, 0.02% TX-100; detection with Alexa 488 anti-His antibody;; high values mean tight binding;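 also: fluorescence intensity normalized to that of the highest-ranked 8-mer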
conditionDetails: protein: recombinant; tags: C-terminal His-tag (pET21a); chain copies: 2; dsDNA, one strand shown
In all, about 33,000 sequences were measured (“normalized occupancy”: median about 0.075, highest 2% from about 0.095 on). Many of the other results were omitted from the sample, so the highest values are more common in it than they were.
readoutKind: binding signal

Please give measured binding signal of the following entry: ACGGGGAC 0.0795 normalized occupancy

Tell me measured binding signal for CCTCCATC please. 0.0784 normalized occupancy

Quick one: give measured binding signal for AATGGTTA 0.0807 normalized occupancy

Identify binding signal associated with the sequence TAACCACA 0.0809 normalized occupancy

Return binding signal for the following sequence: TATGCGCA 0.0804 normalized occupancy

----------
subjectOfTest: MaxL homodimer (Homo sapiens, UniProt P61244 1-160)
experimentNotes: universal protein-binding microarray (PBM); PBS-based mixture, 10 nM His-tagged protein dimer, 2% milk, 200 ng/uL BSA, 50 ng/uL salmon testes DNA, 0.02% TX-100; detection with Alexa 488 anti-His antibody;; high values mean tight binding;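 also: fluorescence intensity normalized to that of the highest-ranked 8-mer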
conditionDetails: protein: recombinant; tags: C-terminal His-tag (pET21a); chain copies: 2; dsDNA, one strand shown
Over roughly 33,000 sequences, “normalized occupancy” has its median near 0.075; the highest 2% begin near 0.095. Many of the other results were omitted from the sample, so the highest values are more common in it than they were.
Classification field: enter true for binding signal values not below 0.09 normalized occupancy, false for values below it.

hey, is binding signal for this one >= 0.09 normalized occupancy? AGATGAGG false

Is reported binding signal greater than or equal to 0.09 normalized occupancy here: ATCCCACG true

I'd appreciate it if you could say whether ATTGAAAT has binding signal at least equal to 0.09 normalized occupancy. false

Given the entry AATGAGGG , answer whether its binding signal meets or surpasses 0.09 normalized occupancy. false

Hi, just wondering whether CAGAGACA shows binding signal of 0.09 normalized occupancy or higher. false

Does ACCCACGT have a reported binding signal of at least 0.09 normalized occupancy? true

hey, is binding signal for this one >= 0.09 normalized occupancy? CATGAGGA true

State whether the measured binding signal reaches 0.09 normalized occupancy, counting equality as reaching it, for GCCCACGA false

# bool: binding signal of GATGAGGC >= 0.09 normalized occupancy false

Can AATGAGGA be said to have binding signal at or above 0.09 normalized occupancy? false

Say whether CCCCACGC shows binding signal of 0.09 normalized occupancy or more. true

Quick check, binding signal >= 0.09 normalized occupancy? CATGAGAG true

Confirm if binding signal reported for the sequence ATCCGTGG is 0.09 normalized occupancy or above. false

Answer whether binding signal of CCCCACGG is greater than or equal to 0.09 normalized occupancy. false
